- assayed system: Receptor tyrosine-protein kinase erbB-2 (Homo sapiens)
- assay: reducers of endogenous Her2 protein level, primary screen, SKBR3 breast tumor cells, AlphaScreen, ATP viability (AID 461);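 further: lower value means less Her2 protein in the cells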
- conditions used: 18-24 h, at 10 µM
Calls of active or inactive are those of the source.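 How the source made its calls: active means Her2 level under about 52% in both replicate screens, with viability over 70% of control (limit read from the data); inconclusive means Her2 under the limit in one screen only, or viability under 70%; inactive means Her2 level above the set limit.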
Labels: Y = active, N = inactive

[
  {
    "compound": "Cc1ccc(C(=O)/C=C/Nc2cccc(O)c2)cc1",
    "category": "N"
  },
  {
    "compound": "CCN1CCN(CCNC(=O)c2cn(C(C)c3ccccc3F)nn2)CC1 (centres undefined)",
    "category": "N"
  },
  {
    "compound": "COc1ccc(CNS(=O)(=O)c2ccc3oc(C(=O)O)c(C)c3c2)cc1",
    "category": "N"
  },
  {
    "compound": "Cc1nc2sc(C(c3cccc(F)c3)N3CCN(C(=O)c4ccco4)CC3)c(O)n2n1 (centres undefined)",
    "category": "N"
  },
  {
    "compound": "Cc1[nH]n(C(N)=S)c(=O)c1C(c1ccccc1)C(C#N)C#N (centres undefined)",
    "category": "N"
  },
  {
    "compound": "Cc1ccc(NC(=O)CSc2nnc(CCCCCNC(=O)OC(C)(C)C)o2)c(C)c1",
    "category": "N"
  },
  {
    "compound": "COCCN(C(=O)CNC(=O)c1ccco1)C(C(=O)NC1CCCCC1)c1cccc(OC)c1 (centres undefined)",
    "category": "N"
  },
  {
    "compound": "CN(Cc1ccccc1)Cc1nc2c([nH]1)c(=O)[nH]c(=O)n2C",
    "category": "N"
  },
  {
    "compound": "CC[C@H]1OC(=O)C[C@@H](O)[C@H](C)[C@@H](O[C@@H]2O[C@H](C)C[C@H](N(C)C)[C@H]2O)[C@@H](CC=O)C[C@@H](C)C(=O)C=C[C@]2(C)O[C@H]2[C@@H]1C",
    "category": "Y"
  }
]
